Origin of measurements: patent US10238642B2

- Test system: tyramine pressor response
- EXPERIMENT: Cardiovascular model in anesthetized rat: inhibition of tyramine pressor response
- Type: in vivo
- CONDITIONS: iv, read-out: estimated potency for inhibition of tyramine-induced increase in SBP (Tyr EC50)
PARAMETER_MEASURED: EC50

STRUCTURE_SMILES_STRING: Fc1cc(F)c(OCc2ccccc2C2CCNCC2)c(F)c1
RESULT_VALUE: 0.86 nM

----------
- EXPERIMENT: Plasma protein binding, human
- Assay type: in vitro ADME

STRUCTURE_SMILES_STRING: Fc1cc(F)c(OCc2ccccc2C2CCNCC2)c(F)c1
fraction unbound: 0.209
